B1: TPD52L2 (parent)
chain: EAEEEELRAELTKVEEEIVTLRQV

variants of: B1; assay: protein stability index of a GFP-peptide fusion (GPS, HEK-293T) (PSI 1-6); higher = more stable; conditions: c terminus: a fixed tail appended;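 note: lentivirally expressed fusions sorted by FACS into six bins by GFP to DsRed ratio, PSI derived from sequencing read proportions per bin multiplied by bin number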
Listing of entries alongside the reported protein stability index.
property.measured: protein stability index

mutation.descriptor: R8I
endpoint.result: 3.83
//
mutation.descriptor: K13H
endpoint.result: 5.04
//
mutation.descriptor: I18L
endpoint.result: 3.92
//
mutation.descriptor: E15F
endpoint.result: 3.61
//
mutation.descriptor: L7Y
endpoint.result: 5.29
//
mutation.descriptor: E3Q
endpoint.result: 2.73
//
mutation.descriptor: R22H
endpoint.result: 3.96
//
mutation.descriptor: R8V
endpoint.result: 3.97
//
mutation.descriptor: V19D
endpoint.result: 4.82
//
mutation.descriptor: Q23Y
endpoint.result: 5.02
//
mutation.descriptor: E3K
endpoint.result: 3.18
//
mutation.descriptor: E16L
endpoint.result: 3.06
//
mutation.descriptor: E1R
endpoint.result: 2.63
//
mutation.descriptor: V24R
endpoint.result: 4.39
//
mutation.descriptor: L11R
endpoint.result: 5.22
//
mutation.descriptor: I18K
endpoint.result: 5.19
//
mutation.descriptor: T12R
endpoint.result: 3.12
//
mutation.descriptor: A9G
endpoint.result: 4.9
//
mutation.descriptor: R22Q
endpoint.result: 3.77
//
mutation.descriptor: E10V
endpoint.result: 2.72
//
mutation.descriptor: E17F
endpoint.result: 2.87
//
mutation.descriptor: E3W
endpoint.result: 3.43
//
mutation.descriptor: E15H
endpoint.result: 5.12
//
mutation.descriptor: I18N
endpoint.result: 4.93
//
mutation.descriptor: A9H
endpoint.result: 2.82
//
mutation.descriptor: E16R
endpoint.result: 2.79
//
mutation.descriptor: V24Q
endpoint.result: 4.14
//
mutation.descriptor: E4Y
endpoint.result: 2.25
//
mutation.descriptor: K13G
endpoint.result: 5.18
//
mutation.descriptor: K13I
endpoint.result: 3.5
//
mutation.descriptor: K13M
endpoint.result: 4.18
//
mutation.descriptor: E16C
endpoint.result: 3.82
//
mutation.descriptor: L11E
endpoint.result: 4.83
//
mutation.descriptor: V19M
endpoint.result: 3.52
//
mutation.descriptor: Q23D
endpoint.result: 4.43
//
mutation.descriptor: E10F
endpoint.result: 3.64
//
mutation.descriptor: V24C
endpoint.result: 3.63
//
mutation.descriptor: E16A
endpoint.result: 3.85
//
mutation.descriptor: T20N
endpoint.result: 3.34
//
mutation.descriptor: E1A
endpoint.result: 3.63
//
mutation.descriptor: V14D
endpoint.result: 4.74
//
mutation.descriptor: E5A
endpoint.result: 2.3
//
mutation.descriptor: E6F
endpoint.result: 2.68
//
mutation.descriptor: E16S
endpoint.result: 3.46
//
mutation.descriptor: K13Y
endpoint.result: 4.08
//
mutation.descriptor: E1G
endpoint.result: 3.02
//
mutation.descriptor: E4I
endpoint.result: 3.73
//
mutation.descriptor: E17I
endpoint.result: 3.46
//
mutation.descriptor: R22E
endpoint.result: 4.25
//
mutation.descriptor: E5Q
endpoint.result: 3.35
//
mutation.descriptor: E4R
endpoint.result: 3.76
//
mutation.descriptor: E10H
endpoint.result: 4.38
//
mutation.descriptor: E1I
endpoint.result: 1.94
//
mutation.descriptor: E4D
endpoint.result: 3.89
